target: D2-receptors (presynaptic dopaminergic receptors) (Oryctolagus cuniculus); construct: perfused rabbit ear artery protocol; from tissue; host or cells: rabbit ear artery (perfused, isolated); assay: perfused rabbit ear artery protocol (D2-agonist activity); type: cell-based; conditions: perfused rabbit ear artery, D2-agonist activity; read-out: EC50
Sequence (G1T1Q0 1-443): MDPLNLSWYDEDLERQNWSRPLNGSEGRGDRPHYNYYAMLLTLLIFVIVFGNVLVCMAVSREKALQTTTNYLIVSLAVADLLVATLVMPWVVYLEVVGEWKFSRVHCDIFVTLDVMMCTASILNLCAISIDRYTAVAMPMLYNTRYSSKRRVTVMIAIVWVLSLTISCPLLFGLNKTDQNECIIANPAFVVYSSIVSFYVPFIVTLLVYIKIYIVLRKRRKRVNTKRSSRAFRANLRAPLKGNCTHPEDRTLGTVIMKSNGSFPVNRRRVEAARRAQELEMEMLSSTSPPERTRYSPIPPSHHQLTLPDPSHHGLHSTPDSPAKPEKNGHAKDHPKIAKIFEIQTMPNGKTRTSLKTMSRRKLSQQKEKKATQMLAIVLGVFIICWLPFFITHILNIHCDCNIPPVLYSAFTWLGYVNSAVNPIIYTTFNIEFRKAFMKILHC
pEC50: −log10 of the molar value.
MEASURED_ENDPOINT: pEC50

I: CCCN(CCC)CCc1c(Cl)cc(O)c2nc(O)sc12
II: CCCN(CCC)CCc1ccc(O)c2[nH]c(=O)oc12
III: CCCN(CCC)CCc1ccc(O)c2[nH]c(=O)sc12
IV: CCCN(CCC)CCc1ccc(O)c2[nH]c(=O)ccc12 [E, reference compound]
Asked: // rank the listed molecules by pEC50, lowest value first List the labels according to the requested ordering.
Given back: IV, I, II, III
(IV: 6.70, I: 7.30, II: 8.10, III: 9.70)

---

molecular target: D2-receptors (presynaptic dopaminergic receptors) (Oryctolagus cuniculus); construct: perfused rabbit ear artery protocol; from tissue; host or cells: rabbit ear artery (perfused, isolated); assay: perfused rabbit ear artery protocol (D2-agonist activity); type: cell-based
MEASURED_ENDPOINT: pEC50
Note on units: pEC50 is unitless, being -log10 of a concentration expressed in mol/L.

Response field pEC50 (D2-receptors (presynaptic dopaminergic receptors) (Oryctolagus cuniculus)) for item NCCc1ccc(O)c(O)c1 [D, dopamine, reference compound] : 7.40
